FYI, the data here is from the NIST ThermoML archive (doi:10.1021/je200628n).

# experimentDescription: activity coefficient (dimensionless); of the first substance listed, at infinite dilution; xn = mol fraction of the nth substance listed
# conditionDescription: 353.15 K; 101 kPa; Liquid; Chromatography; x1 = 0
Recorded measurements of activity coefficient, one per entry

Consider the following illustrative entries.
- molecule: "C=CCCCC [hex-1-ene] + NCCCCCCCCCCCCN"
  reportedResult: 4.12
- molecule: "ClCCl [dichloromethane] + NCCCCCCCCCCCCN"
  reportedResult: 1.23

Query: State, in one line, measured activity coefficient of CCCCCl [1-chlorobutane] + NCCCCCCCCCCCCN
Reply: 2.63

====

# experimentDescription: activity coefficient (dimensionless); of the first substance listed, at infinite dilution; xn = mol fraction of the nth substance listed
# conditionDescription: 338.2 K; 101 kPa; Liquid; Chromatography; x1 = 0
Each entry gets N if its activity coefficient stays under 5, and Y if its activity coefficient is 5 or above.

- compound: "C=CCCCCCC [oct-1-ene] + NCCCCCCCCCCN"
  labelClass: "N"
- compound: "CCCO [propan-1-ol] + NCCCCCCCCCCN"
  labelClass: "N"
- compound: "CCCCCCCCCC [decane] + NCCCCCCCCCCN"
  labelClass: "Y"

Query: Does c1ccccc1 [benzene] + NCCCCCCCCCCN have a reported activity coefficient of at least 5?
Reply: N

Query: Identify whether the reported activity coefficient of the following compound is 5 or greater: CCCCCCCC [octane] + NCCCCCCCCCCN
Reply: Y

Query: Is activity coefficient at least 5? Consider CCCCCl [1-chlorobutane] + NCCCCCCCCCCN
Reply: N

Query: Entry C=CCCCCCCCC [1-decene] + NCCCCCCCCCCN : is its activity coefficient no less than 5?
Reply: N

Query: Reported activity coefficient at or above 5? CCOC(C)=O [ethyl acetate] + NCCCCCCCCCCN
Reply: N

Query: Tell me whether activity coefficient is at least 5 here: CCCCCCCl [1-chlorohexane] + NCCCCCCCCCCN
Reply: N

Query: Reported activity coefficient at or above 5? ClC(Cl)(Cl)Cl [tetrachloromethane] + NCCCCCCCCCCN
Reply: N

====

# experimentDescription: activity coefficient (dimensionless); of the first substance listed, at infinite dilution; xn = mol fraction of the nth substance listed
# conditionDescription: 363.21 K; 101 kPa; Liquid; Chromatography; x1 = 0
// assign criterion met if activity coefficient falls strictly below 2, else criterion not met (ties count as criterion not met)

Please review the entries below; each comes with its answer.
- compound: "C=CCCCC [hex-1-ene] + NCCCCCCCCCCCCN"
  labelClass: "criterion not met"
- compound: "CCCCC [pentane] + NCCCCCCCCCCCCN"
  labelClass: "criterion not met"
- compound: "Cc1ccccc1 [toluene] + NCCCCCCCCCCCCN"
  labelClass: "criterion not met"
- compound: "CCCCCl [1-chlorobutane] + NCCCCCCCCCCCCN"
  labelClass: "criterion not met"
- compound: "CCCOC(C)=O [propyl ethanoate] + NCCCCCCCCCCCCN"
  labelClass: "criterion met"
- compound: "CCOC(C)=O [ethyl acetate] + NCCCCCCCCCCCCN"
  labelClass: "criterion met"

Query: Lab note: activity coefficient threshold 2. Does this compound come in strictly under it? CCCCCCCCCC [decane] + NCCCCCCCCCCCCN
Reply: criterion not met

Query: Lab note: activity coefficient threshold 2. Does this compound come in strictly under it? CCO [ethanol] + NCCCCCCCCCCCCN
Reply: criterion met

Query: Hi there! Is activity coefficient for C=CCCC [1-pentene] + NCCCCCCCCCCCCN below 2, do you know?
Reply: criterion not met

Query: Determine if CCOCC [diethyl ether] + NCCCCCCCCCCCCN shows activity coefficient strictly lower than 2.
Reply: criterion not met

Query: activity coefficient under 2? Item: CO [methanol] + NCCCCCCCCCCCCN
Reply: criterion met

Query: Does the reported activity coefficient of CCCCCCCl [1-chlorohexane] + NCCCCCCCCCCCCN stay below 2?
Reply: criterion not met
